biological target: Glutamate receptor 2 (Homo sapiens, UniProt P42262)
Sequence (P42262 whole entry): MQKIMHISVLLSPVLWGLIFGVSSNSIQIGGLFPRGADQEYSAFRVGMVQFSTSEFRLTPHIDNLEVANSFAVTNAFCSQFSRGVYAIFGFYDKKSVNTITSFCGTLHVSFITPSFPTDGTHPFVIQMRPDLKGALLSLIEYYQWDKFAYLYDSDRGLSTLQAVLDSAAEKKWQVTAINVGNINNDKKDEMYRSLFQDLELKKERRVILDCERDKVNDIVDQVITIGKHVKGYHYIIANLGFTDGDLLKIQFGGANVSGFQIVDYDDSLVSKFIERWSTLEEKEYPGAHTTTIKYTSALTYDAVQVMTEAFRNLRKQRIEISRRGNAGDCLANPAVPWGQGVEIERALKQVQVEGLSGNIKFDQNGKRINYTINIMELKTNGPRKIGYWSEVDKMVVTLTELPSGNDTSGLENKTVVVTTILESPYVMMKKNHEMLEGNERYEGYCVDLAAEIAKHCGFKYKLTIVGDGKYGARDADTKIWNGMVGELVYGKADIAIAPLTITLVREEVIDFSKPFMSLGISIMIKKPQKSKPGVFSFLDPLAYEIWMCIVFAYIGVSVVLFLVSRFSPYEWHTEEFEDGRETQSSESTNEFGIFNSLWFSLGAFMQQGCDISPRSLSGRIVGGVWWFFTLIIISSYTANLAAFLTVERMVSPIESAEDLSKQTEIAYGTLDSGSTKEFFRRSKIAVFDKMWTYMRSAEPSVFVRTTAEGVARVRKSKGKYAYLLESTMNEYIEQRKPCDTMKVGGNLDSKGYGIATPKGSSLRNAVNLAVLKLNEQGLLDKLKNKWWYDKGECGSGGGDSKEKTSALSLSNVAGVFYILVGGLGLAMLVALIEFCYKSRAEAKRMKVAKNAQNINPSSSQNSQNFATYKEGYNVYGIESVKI
pIC50: −log10 of the molar value.

smiles_string | tested_on | pIC50
O=c1[nH]c2cc3no[n+]([O-])c3cc2[nH]c1=O | Glutamate receptor 2 (Homo sapiens, UniProt P42262) | 5.12

These measurements were taken from ChEMBL document CHEMBL1140073.
